Listing: relative binding ratio of selected binders
Assay System: T1, HLA-A*0201 (human)
T1 construct: also called HLA-A2.1
Protocol: inhibition of 125I-labelled standard peptide binding to purified HLA, gel filtration; ratio = IC50 of standard / IC50 of test peptide

Binder: RASPLTSII [HER2/neu peptide, position 647, 9 amino acids]
relative binding ratio: 0.0002 ratio to standard peptide

Binder: RLRIVRGTQL [HER2/neu peptide, position 98, 10 amino acids]
relative binding ratio: 0.0001 ratio to standard peptide

Binder: STDVGSCTLV [HER2/neu peptide, position 305, 10 amino acids]
relative binding ratio: 0.0001 ratio to standard peptide

Binder: SVFQNLQVI [HER2/neu peptide, position 423, 9 amino acids]
relative binding ratio: 0.0017 ratio to standard peptide
